Experimental target: T1, human CD20 (human, UniProt P11836 1-297)
T1 sequence (looked up): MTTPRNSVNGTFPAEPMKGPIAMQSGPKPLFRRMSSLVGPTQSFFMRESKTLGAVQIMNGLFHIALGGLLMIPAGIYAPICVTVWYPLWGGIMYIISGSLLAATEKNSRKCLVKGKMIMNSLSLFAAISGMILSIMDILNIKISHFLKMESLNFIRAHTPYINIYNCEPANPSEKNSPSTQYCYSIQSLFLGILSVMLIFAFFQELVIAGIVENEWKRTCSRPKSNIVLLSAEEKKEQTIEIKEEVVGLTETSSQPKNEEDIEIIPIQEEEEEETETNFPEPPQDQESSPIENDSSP
Test description: cell-based or functional assay
Answer each item with its documented % Lysis Daudi 0.001 µg/ml ADCC.
Answer in %, number only, no unit symbol.

input: Need % Lysis Daudi 0.001 µg/ml ADCC, item mAb 1.6.2 (antibody, human IgG1, V domains shown) VH: EVQLVQSGAEVKKPGESLKISCKGSGYSFTSYWIGWVRQMPGKGLEWMGIIYPGDSDTRYSPSFQGQVTISADKSISTAYLQWSSLKASDTAMYYCARHGDYSNIDAFDIWGQGTMVTVSS VL: DVVMTQSPLSLPVTLGQPASISCRSSQSLVYSDGNAYLNWFQQRPGQSPRRLIYKVSNWDSGVPDRFSGSGSGTDFTLKIRRVEAEDVGAYYCMQGIHCTFGPGTKVHIK
output: 77

input: Need % Lysis Daudi 0.001 µg/ml ADCC, item mAb 2.2.2 (antibody, human IgG1, V domains shown) VH: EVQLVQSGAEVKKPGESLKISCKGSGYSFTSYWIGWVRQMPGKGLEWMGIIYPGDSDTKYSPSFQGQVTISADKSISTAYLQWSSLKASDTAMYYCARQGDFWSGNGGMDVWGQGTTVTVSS VL: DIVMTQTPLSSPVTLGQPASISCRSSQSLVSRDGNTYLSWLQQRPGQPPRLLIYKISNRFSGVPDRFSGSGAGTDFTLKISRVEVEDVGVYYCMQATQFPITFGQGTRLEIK
output: 60

input: Need % Lysis Daudi 0.001 µg/ml ADCC, item mAb 1.12.3 (antibody, human IgG1, V domains shown) VH: EVQLVQSGAEVKKPGESLKISCKGSGYSFTSYWIGWVRQMSGKGLEWMGIIYPGDSDTRYSPSFQGQVTISADKSISTAYLQWSSLKASDTAIYYCARHPSYGSGSPNFDYWGQGTLVTVSS VL: DIVMTQTPLSSPVTLGQPASISCRSSQSLVYSDGNTYLSWLQQRPGQPPRLLFYKISNRFSGVPDRFSGSGAGTDFTLKISRVEAEDVGVYYCVQATQFPLTFGGGTKVEIK
output: 17

input: Need % Lysis Daudi 0.001 µg/ml ADCC, item mAb 2.1.2 (ATCC Accession Number PTA-7328) (antibody, human IgG1, V domains shown, Human IgG1 kappa; also called 2.1.1; 50-001H2_1_1) VH: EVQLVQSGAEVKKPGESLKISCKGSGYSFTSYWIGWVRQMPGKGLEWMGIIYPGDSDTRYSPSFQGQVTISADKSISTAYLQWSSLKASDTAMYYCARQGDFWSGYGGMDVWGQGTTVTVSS VL: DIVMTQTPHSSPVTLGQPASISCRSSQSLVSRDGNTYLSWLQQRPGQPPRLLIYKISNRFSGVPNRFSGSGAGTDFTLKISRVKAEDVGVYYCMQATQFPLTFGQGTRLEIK
output: 52

input: Need % Lysis Daudi 0.001 µg/ml ADCC, item mAb 1.2.1 (antibody, human IgG1, V domains shown, Human IgG1 kappa; also called 1.2.1.1; 50-001H1_2_1_1) VH: EVQLVQSGAEVKKPGESLKISCKGSGYSFTSYWIGWVRQMPGKGLEWMGIIYPGDSDTRYSPSFQGQVTISADKSISTAYLQWSSLKASDTAMYYCARLGDYYNYYGMDVWGQGTTVTVSS VL: DIVMTQTPLSSPVTLGQPASISCRSSQSLVHSDGKTYLSWLQQRPGQPPRLLIYKSSNRFSGVPDRFSGSGAGTDFTLKISRVEAEDVGVYYCVQATQFPITFGQGTRLEIK
output: 56

input: Need % Lysis Daudi 0.001 µg/ml ADCC, item mAb 1.13.2 (antibody, human IgG1, V domains shown, Human IgG1 kappa; also called 1.13.1; 50-001H1_13_1) VH: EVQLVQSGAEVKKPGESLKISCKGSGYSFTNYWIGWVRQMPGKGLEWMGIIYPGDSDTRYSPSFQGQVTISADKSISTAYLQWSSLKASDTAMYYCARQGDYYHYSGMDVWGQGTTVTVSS VL: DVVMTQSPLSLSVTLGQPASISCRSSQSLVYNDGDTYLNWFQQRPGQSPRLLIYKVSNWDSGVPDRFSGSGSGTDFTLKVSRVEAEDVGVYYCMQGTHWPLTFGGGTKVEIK
output: 24
